test: Cytotoxicity against human NCI/ADR cells after 48 hrs by sulforhodamine B assay; assay type: functional, cell-based; conditions: NCI/ADR-RES
QUANTITY KIND: IC50 (nM)
One number for each entry, in nM.

Task: Could you share which IC50 value was measured for COc1ccc(-c2cc(C(=O)N/N=C(\C)c3ccc(OC)c(OC)c3)[nH]n2)cc1 ?
Result: 1500

* * *

biological target: Sphingosine kinase 1 (Homo sapiens); assay: Inhibition of His6x-tagged recombinant sphingosine kinase 1 expressed in HEK293 cells at 10.7 uM; type: cell-based
Sequence (Q9NYA1 whole entry): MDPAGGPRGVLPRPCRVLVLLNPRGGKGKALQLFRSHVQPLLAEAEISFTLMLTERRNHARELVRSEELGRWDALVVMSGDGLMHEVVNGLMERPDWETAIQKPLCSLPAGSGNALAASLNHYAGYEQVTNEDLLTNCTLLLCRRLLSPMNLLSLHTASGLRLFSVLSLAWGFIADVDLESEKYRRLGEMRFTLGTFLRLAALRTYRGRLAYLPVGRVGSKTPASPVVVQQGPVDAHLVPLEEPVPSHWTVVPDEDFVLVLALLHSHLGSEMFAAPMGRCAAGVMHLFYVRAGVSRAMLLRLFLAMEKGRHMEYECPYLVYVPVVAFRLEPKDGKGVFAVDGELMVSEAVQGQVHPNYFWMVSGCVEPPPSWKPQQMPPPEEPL
Bucketed by reported inhibition, buckets being low value: < 30%; medium value: ≥ 30% and < 40%; high value: ≥ 40%

Below, 5 molecules whose answers are already recorded.
O=C(N/N=C/c1cccc(O)c1)c1cc(-c2ccc3ccccc3c2)n[nH]1
low value
COc1ccc(-c2cc(C(=O)N/N=C(\C)c3ccc(Cl)cc3)[nH]n2)cc1
high value
COc1ccc(-c2cc(C(=O)N/N=C/c3cccc(O)c3)[nH]n2)cc1
low value
COc1ccc(-c2cc(C(=O)N/N=C/c3ccc(O)cc3)[nH]n2)cc1
low value
COc1ccc(-c2cc(C(=O)N/N=C/c3cc(O)cc(O)c3)[nH]n2)cc1
low value

Task: Returns: class label. Input: O=C(N/N=C/c1ccc(O)cc1)c1cc(-c2ccc3ccccc3c2)n[nH]1
Result: low value

Task: Category of CCN(CC)c1ccc(/C=N/NC(=O)c2cc(-c3ccc(OC)cc3)n[nH]2)cc1 , please.
Result: medium value

Task: Input COc1ccc(-c2cc(C(=O)N/N=C/c3ccccc3O)[nH]n2)cc1 ; output its category
Result: medium value

Task: Lab log: COc1ccc(-c2cc(C(=O)N/N=C/c3ccc4ccccc4c3)[nH]n2)cc1 — assign inhibition category
Result: high value

Task: Looking at O=C(N/N=C/c1ccccc1O)c1cc(-c2ccc3ccccc3c2)n[nH]1 , which class would you pick?
Result: high value
